Provide the reported protein stability index of each item.
B1: TRIM43 (parent)
chain: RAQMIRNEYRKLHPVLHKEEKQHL

Variants of: B1
Measurement Protocol: protein stability index of a GFP-peptide fusion (GPS, HEK-293T) (PSI 1-6); higher = more stable;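 also: lentivirally expressed fusions sorted by FACS into six bins by GFP to DsRed ratio, PSI derived from sequencing read proportions per bin multiplied by bin number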
Protocol Conditions: c terminus: a fixed tail appended
One number for each entry.

Sample answers from the record:
RAQMIRNEYRKLHPVCHKEEKQHL [L16C]
2.71
RAQMIVNEYRKLHPVLHKEEKQHL [R6V]
3.52
RAQMIRNEYRKLHPVLHREEKQHL [K18R]
2.55

Task: I have this variant here, RAQMIRNVYRKLHPVLHKEEKQHL [E8V] , and I need its recorded protein stability index.
Result: 2.33
